B1: KCNAB2 (parent)
chain: YVDVVFANRPDPNTPMEETVRAMT

Variants of: B1
protocol_summary: protein stability index of a GFP-peptide fusion (GPS, HEK-293T) (PSI 1-6); higher = more stable;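 also: lentivirally expressed fusions sorted by FACS into six bins by GFP to DsRed ratio, PSI derived from sequencing read proportions per bin multiplied by bin number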
condition_label: c terminus: a fixed tail appended
endpoint: protein stability index
The answer should be written as a number, with no unit following it.

entry_sequence: YVDVVFANRPDPNTPVEETVRAMT [M16V]
protein stability index: 1.65
--
entry_sequence: YVDVVFANRPDPNGPMEETVRAMT [T14G]
protein stability index: 2.04

Entry under test: YVDVVFANRPDPNTIMEETVRAMT [P15I] . Its protein stability index was 1.9

Entry under test: YVDVVFANRPDPNTPMEETMRAMT [V20M] . Its protein stability index was 1.71

Entry under test: YVDVVFANRPDPRTPMEETVRAMT [N13R] . Its protein stability index was 1.98
